Tested on: Panc 05.04 cells (SF3b K700E mutant)
Experiment: Cell proliferation and viability, CellTiter-Glo, 72 hours
Format: cell-based
Conditions: Panc 05.04, 72 h, read-out: CTGlo-ATS GMean GI50 (nM) 72 h PANC0504.1, PANC0504.1 cells, 72 h; geometric mean
reported metric: GI50 (nM)
Numbers only; they are read as nM.

Example compounds with recorded GI50:
{"compound": "C/C(=C\\c1cc(F)c2cnn(C)c2c1)[C@H]1OC(=O)C[C@H](O)CC[C@H](C)[C@@H](OC(=O)N2CCN(C)CC2)/C=C/[C@@H]1C", "result units": "nM", "GI50": 9.78}
{"compound": "C/C(=C\\c1cc(F)cc(N2CCO[C@@H](C)C2)c1)[C@H]1OC(=O)C[C@H](O)CC[C@H](C)[C@@H](OC(=O)N2CCN(C)CC2)/C=C/[C@@H]1C", "result units": "nM", "GI50": 7.48}
{"compound": "C/C(=C\\c1cc(F)cc(N2CCOCC2)c1)C1OC(=O)C[C@H](O)CC[C@H](C)[C@@H](OC(=O)N2CCN(C3CCOCC3)CC2)/C=C/[C@@H]1C (some centres unmarked)", "result units": "nM", "GI50": 19}
{"compound": "C/C(=C\\c1cc(F)cc(N2CCN(C(=O)C3CCOC3)CC2)c1)[C@H]1OC(=O)C[C@H](O)CC[C@H](C)[C@@H](OC(=O)N2CCN(C)CC2)/C=C/[C@@H]1C (some centres unmarked)", "result units": "nM", "GI50": 3.67}

Please turn your attention to the following entry.
For the compound C/C(=C\c1cc(F)cc(N2CCN(C(=O)C3CCOCC3)CC2)c1)[C@H]1OC(=O)C[C@H](O)CC[C@H](C)[C@@H](OC(=O)N2CCN(C)CC2)/C=C/[C@@H]1C , what GI50 is on record?
4.55

====

System: Panc 05.04 cells (SF3b K700E mutant)
Test: Cell proliferation and viability, CellTiter-Glo, 72 hours
Assay type: cell-based
Conditions: 72 h; PANC0504.1; -100% = cidal, 0% = static, 100% = uninhibited growth
Please use yes whenever CTGlo-ATS Mean MinResponse % 72 h PANC0504.1 is not below -90%, and no whenever it is.

Look over these answered cases.
{"molecule": "C/C(=C\\c1cccc(COC(=O)N2CCC3(COC3)C2)c1)[C@H]1OC(=O)C[C@H](O)CC[C@H](C)[C@@H](OC(=O)N2CCN(C)CC2)/C=C/[C@@H]1C", "category": "yes"}
{"molecule": "C/C(=C\\c1cccc(S(=O)(=O)C2CC2)c1)[C@H]1OC(=O)C[C@H](O)CC[C@H](C)[C@@H](OC(=O)N2CCN(C)CC2)/C=C/[C@@H]1C", "category": "yes"}
{"molecule": "C/C(=C\\c1cc(F)cc(N2CCOCC2)c1)[C@H]1OC(=O)C[C@H](O)CC[C@H](C)[C@@H](OC(=O)N2CC[C@@H](F)C2)/C=C/[C@@H]1C", "category": "yes"}
{"molecule": "C/C(=C\\c1cccc(S(=O)(=O)N2CCCC2C)c1)[C@H]1OC(=O)CC(O)CCC(C)[C@@H](OC(=O)N2CCN(C)CC2)/C=C/[C@@H]1C (stereo in doubt)", "category": "no"}
{"molecule": "C/C(=C\\c1cccc(COC(=O)N2CCCC2CO)c1)[C@H]1OC(=O)C[C@H](O)CC[C@H](C)[C@@H](OC(=O)N2CCN(C)CC2)/C=C/[C@@H]1C (stereo in doubt)", "category": "yes"}

// next entry
Does CTGlo-ATS Mean MinResponse % 72 h PANC0504.1 meet or surpass -90% for C/C(=C\c1cccc(S(=O)(=O)N2CCC(F)(F)CC2)c1)[C@H]1OC(=O)C[C@H](O)CC[C@H](C)[C@@H](OC(=O)N2CCN(C)CC2)/C=C/[C@@H]1C ?
no

Cited source for all entries: patent US11679107B2
